- assayed.target: T1, human recombinant CD117 (c-Kit) from Sino Biological (Catalog No. 11996-H08H) (human, UniProt P10721 26-524)
- T1 construct: also called soluble antigen
- T1 sequence (P10721 26-524 limits assumed): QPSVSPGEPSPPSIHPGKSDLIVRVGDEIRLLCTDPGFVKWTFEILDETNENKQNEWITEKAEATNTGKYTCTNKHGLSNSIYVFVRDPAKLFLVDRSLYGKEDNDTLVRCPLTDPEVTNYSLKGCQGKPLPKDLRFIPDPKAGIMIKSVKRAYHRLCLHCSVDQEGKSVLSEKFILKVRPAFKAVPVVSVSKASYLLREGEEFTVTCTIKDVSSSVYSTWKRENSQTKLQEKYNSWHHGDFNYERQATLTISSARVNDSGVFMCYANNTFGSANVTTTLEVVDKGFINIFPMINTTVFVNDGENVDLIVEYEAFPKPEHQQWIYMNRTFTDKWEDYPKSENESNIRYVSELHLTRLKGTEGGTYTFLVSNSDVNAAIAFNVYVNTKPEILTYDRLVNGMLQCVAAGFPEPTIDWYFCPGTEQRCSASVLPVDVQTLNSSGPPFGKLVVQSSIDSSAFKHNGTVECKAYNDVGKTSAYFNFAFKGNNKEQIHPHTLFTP
- experiment: BLI Octet, set-up as in Example 2
Please go through the items and note down their pKd.
Scale: pKd equals -log10([C]), with [C] in mol/L.

Query: Fill in the blank: the reported pKd of Schreckhorn (antibody, V domains shown, IgG; also called VH1/VL1.16) VH: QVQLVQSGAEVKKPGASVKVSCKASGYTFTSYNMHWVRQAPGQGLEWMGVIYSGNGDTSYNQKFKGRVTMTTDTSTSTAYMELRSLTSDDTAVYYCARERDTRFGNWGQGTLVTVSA VL: EIVLTQSPSSLSASVGDRVTITCRASESVDIYGYSFMHWYQQKPGKAPKLLIYLASNLESGVPSRFSGSGSGTDFTLTISSLQPEDFATYYCQQNNEEPYTFGQGTKLEIKR is ____.
Reply: 9.89

Query: What does the data say about its pKd? Entry: Dufour (antibody, V domains shown, IgG; also called VH1/VL1; HC1 LC1) VH: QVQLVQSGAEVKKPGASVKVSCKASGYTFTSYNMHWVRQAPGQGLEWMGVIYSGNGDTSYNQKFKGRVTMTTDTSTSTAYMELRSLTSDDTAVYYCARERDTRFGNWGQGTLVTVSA VL: EIVLTQSPSSLSASVGDRVTITCRASESVDIYGNSFMHWYQQKPGKAPKLLIYLASNLESGVPSRFSGSGSGTDFTLTISSLQPEDFATYYCQQNNEDPYTFGQGTKLEIK
Reply: 9.40

Query: Would you mind telling me what pKd value was observed for Grand Combin (antibody, V domains shown, IgG; also called VH1/VL1.9) VH: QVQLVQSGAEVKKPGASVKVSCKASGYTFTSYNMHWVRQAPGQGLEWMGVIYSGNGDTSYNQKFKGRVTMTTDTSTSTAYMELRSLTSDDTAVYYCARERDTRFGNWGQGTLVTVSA VL: EIVLTQSPSSLSASVGDRVTITCRASESVDIYGNSFMHWYQQKPGKAPKLLIYLASNLESGVPSRFSGSGSGTDFTLTISSLQPEDFATYYCQQGNEDPYTFGQGTKLEIKR ?
Reply: 8.89

Query: Bench note: what pKd did Bellavista (antibody, V domains shown, IgG; also called VH1.4/VL1.29) VH: QVQLVQSGAEVKKPGASVKVSCKASGYTFTSYNMHWVRQAPGQGLEWMGVIYSGQGDTSYNQKFKGRVTMTTDTSTSTAYMELRSLTSDDTAVYYCARERDTRFGNWGQGTLVTVSA VL: EIVLTQSPSSLSASVGDRVTITCRASESVDIYGESFMHWYQQKPGKAPKLLIYLASNLESGVPSRFSGSGSGTDFTLTISSLQPEDFATYYCQQNREEPYTFGQGTKLEIKR show?
Reply: 8.89

Query: Value lookup for pKd; key = Jungfrau (antibody, V domains shown, IgG; also called VH1.2/VL1) VH: QVQLVQSGAEVKKPGASVKVSCKASGYTFTSYNMHWVRQAPGQGLEWMGVIYSGSGDTSYNQKFKGRVTMTTDTSTSTAYMELRSLTSDDTAVYYCARERDTRFGNWGQGTLVTVSA VL: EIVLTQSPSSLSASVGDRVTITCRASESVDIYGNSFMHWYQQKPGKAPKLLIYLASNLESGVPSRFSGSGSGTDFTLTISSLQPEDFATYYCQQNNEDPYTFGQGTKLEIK
Reply: 8.89
